# Experimental system: CYP2C19 (Homo sapiens)
# Sequence (P33261 whole entry): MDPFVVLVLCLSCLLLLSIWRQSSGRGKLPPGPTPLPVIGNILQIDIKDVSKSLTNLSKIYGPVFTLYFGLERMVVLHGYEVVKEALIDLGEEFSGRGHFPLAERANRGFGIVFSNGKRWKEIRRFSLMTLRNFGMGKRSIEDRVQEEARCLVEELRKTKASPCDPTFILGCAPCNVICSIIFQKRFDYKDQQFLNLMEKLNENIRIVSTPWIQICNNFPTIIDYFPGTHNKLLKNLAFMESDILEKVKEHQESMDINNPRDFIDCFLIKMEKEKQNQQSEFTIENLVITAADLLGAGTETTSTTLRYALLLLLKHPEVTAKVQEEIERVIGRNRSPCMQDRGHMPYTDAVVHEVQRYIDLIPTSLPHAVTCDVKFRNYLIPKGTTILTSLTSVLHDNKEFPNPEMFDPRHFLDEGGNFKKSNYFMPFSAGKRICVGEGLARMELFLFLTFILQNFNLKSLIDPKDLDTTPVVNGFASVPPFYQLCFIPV
# Protocol: Cytochrome P450 inhibition assay, CYP2C19
# Type: in vitro ADME
# Test conditions: CYP activity as % of control, 10 μM, human liver microsomes
Assign Cytochrome P450 inhibition (% of control) 2C19 to each entry below.

# lookup: Cytochrome P450 inhibition (% of control) 2C19 of C=CC(=O)Nc1cc(Nc2ncc(F)c(Nc3ccccc3P(C)(C)=O)n2)c(OC)cc1N(C)CCN(C)C [Compound 7f] >100 % of control

# lookup: Cytochrome P450 inhibition (% of control) 2C19 of C=CC(=O)Nc1cc(Nc2ncc(I)c(Nc3ccccc3S(=O)(=O)C(C)C)n2)c(OC)cc1N(C)CCN(C)C [Compound 7d] 86 % of control

# lookup: Cytochrome P450 inhibition (% of control) 2C19 of C=CC(=O)Nc1cc(Nc2ncc(F)c(Nc3ccccc3S(=O)(=O)C(C)C)n2)c(OC)cc1N(C)CCN(C)C [Compound 7b] 93 % of control

# lookup: Cytochrome P450 inhibition (% of control) 2C19 of C=CC(=O)Nc1cc(Nc2nccc(Nc3ccccc3P(C)(C)=O)n2)c(OC)cc1N(C)CCN(C)C [Compound 7e] >100 % of control

# lookup: Cytochrome P450 inhibition (% of control) 2C19 of C=CC(=O)Nc1cc(Nc2nccc(Nc3ccccc3S(=O)(=O)C(C)C)n2)c(OC)cc1N(C)CCN(C)C [Compound 7a] 87 % of control

# lookup: Cytochrome P450 inhibition (% of control) 2C19 of C=CC(=O)Nc1cc(Nc2ncc(F)c(Nc3ccccc3S(=O)(=O)N(C)C)n2)c(OC)cc1N(C)CCN(C)C [Compound 7j] 91 % of control

# lookup: Cytochrome P450 inhibition (% of control) 2C19 of C=CC(=O)Nc1cc(Nc2ncc(Cl)c(Nc3ccccc3S(=O)(=O)C(C)C)n2)c(OC)cc1N(C)CCN(C)C [Compound 7c] 86 % of control
